This section presents molecules with their documented inhibition values.
- procedureDetails: growth inhibition, MDA-MB-436, cell-based, BGB or cisplatin combos, synergistic combos for chromothripsis tumors (AID 1671458);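 note: cells exposed for 96 hours; 0% = vehicle DMSO and 100% = killing by high DMSO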
- studyConditions: MDA-MB-436 breast carcinoma growth inhibition, drug combinations; measured here: cisplatin combination; at 0.5 µM; stronger effect = higher value
Express the result in % but write the number alone.

The cases that follow already have their inhibition on record.
O=C(/C=C/c1ccc(CN(CCO)CCc2c[nH]c3ccccc23)cc1)NO    60.4
c1cc(Nc2cc(C3CC3)[nH]n2)nc(Nc2ccc3nc[nH]c3c2)n1    5.08
CC(=O)[C@]1(N)Cc2c(O)c3c(c(O)c2[C@@H](O[C@H]2C[C@H](O)[C@H](O)CO2)C1)C(=O)c1ccccc1C3=O    -8.99

Quick check: inhibition of `N=C1CCCN1Cc1[nH]c(=O)[nH]c(=O)c1Cl` ?
-14.7

Quick check: inhibition of `Cc1ccc([N+](=O)[O-])cc1S(=O)(=O)N(C)/N=C/c1cnc2ccc(Br)cn12` ?
77.3

Quick check: inhibition of `O=c1cc(N2CCOCC2)oc2c(-c3cccc4c3sc3ccccc34)cccc12` ?
-13

Quick check: inhibition of `Nc1ccc(-c2ccc3ncc4ccc(=O)n(-c5cccc(C(F)(F)F)c5)c4c3c2)cn1` ?
-4.07

====

- procedureDetails: drug combination growth inhibition, ovarian cancer – cell-based, oncology-focused library, rucaparib conditional, profiling panel (AID 1508598)
- studyConditions: patient-derived ovarian cancer cells, CellTiter-Glo viability, 144 h; at 0.0781 µM; OCI-P5x cells; without rucaparib; stronger effect = lower value
This section presents compounds with their documented viability values.
Express the result in % but write the number alone.

O=C(Nc1ccc(OC(F)(F)F)cc1)c1sccc1NCc1ccnc2ccccc12    108
COc1cc(Nc2ncc(F)c(Nc3ccc4c(n3)NC(=O)C(C)(C)O4)n2)cc(OC)c1OC    55
CC(=O)c1c(C)c2cnc(Nc3ccc(N4CCNCC4)cn3)nc2n(C2CCCC2)c1=O    103

Quick check: viability of `Cc1cn(-c2cc(NC(=O)c3ccc(C)c(Nc4nccc(-c5cccnc5)n4)c3)cc(C(F)(F)F)c2)cn1` ?
104

Quick check: viability of `C=CCn1c(=O)c2cnc(Nc3ccc(N4CCN(C)CC4)cc3)nc2n1-c1cccc(C(C)(C)O)n1` ?
92.8

Quick check: viability of `CC(C)Oc1ccc(C(=O)N[C@H](CNC(=O)CN(C)C)Cc2ccc(-c3cn4cccc([C@H](C)O)c4n3)cc2)cc1Cl` ?
30.8

Quick check: viability of `Cn1cncc1[C@@](N)(c1ccc(Cl)cc1)c1ccc2c(c1)c(-c1cccc(Cl)c1)cc(=O)n2C` ?
67.4

Quick check: viability of `CS(=O)(=O)N1CCc2c(-c3cnc(N)nc3)nc(N3CCOCC3)nc21` ?
110

Quick check: viability of `CCOc1ccn(-c2ccc(F)cc2)c(=O)c1C(=O)Nc1ccc(Oc2ccnc(N)c2Cl)c(F)c1` ?
116

Quick check: viability of `CNc1nc(-c2ccc3c(N)n[nH]c3c2)cc(N2C[C@@H](C(=O)NC3CCCCC3)CC[C@H]2C)n1` ?
98.2

Quick check: viability of `Nc1cc(C(F)(F)F)c(-c2cc(N3CCOCC3)nc(N3CCOCC3)n2)cn1` ?
102

Quick check: viability of `Cc1ccc(F)c(NC(=O)Nc2ccc(-c3cccc4[nH]nc(N)c34)cc2)c1` ?
102

Quick check: viability of `C#CC[C@H](c1nc2cc(Cl)ccc2c(=O)n1Nc1ccccc1)N(CCCN)C(=O)c1cccc(Cl)c1F` ?
49.8

Quick check: viability of `O=c1cc(N2CCOCC2)oc2c(-c3cccc4c3sc3ccccc34)cccc12` ?
90.1

Quick check: viability of `CC(C)n1nc(-c2ccc3oc(N)nc3c2)c2c(N)ncnc21` ?
37.2

Quick check: viability of `Cc1cnc(Nc2ccc(OCCN3CCCC3)cc2)nc1Nc1cccc(S(=O)(=O)NC(C)(C)C)c1` ?
105

Quick check: viability of `CCCS(=O)(=O)Nc1ccc(F)c(C(=O)c2c[nH]c3ncc(-c4ccc(Cl)cc4)cc23)c1F` ?
104

Quick check: viability of `CC(C)(C)Cn1c(N)nc2ccc(-c3[nH]c(C(C)(C)C)nc3-c3ccc(F)cc3)nc21` ?
109

Value source: PubChem BioAssay
